measured.target: Peroxisome proliferator-activated receptor gamma (Homo sapiens, UniProt P37231)
Sequence (P37231 whole entry): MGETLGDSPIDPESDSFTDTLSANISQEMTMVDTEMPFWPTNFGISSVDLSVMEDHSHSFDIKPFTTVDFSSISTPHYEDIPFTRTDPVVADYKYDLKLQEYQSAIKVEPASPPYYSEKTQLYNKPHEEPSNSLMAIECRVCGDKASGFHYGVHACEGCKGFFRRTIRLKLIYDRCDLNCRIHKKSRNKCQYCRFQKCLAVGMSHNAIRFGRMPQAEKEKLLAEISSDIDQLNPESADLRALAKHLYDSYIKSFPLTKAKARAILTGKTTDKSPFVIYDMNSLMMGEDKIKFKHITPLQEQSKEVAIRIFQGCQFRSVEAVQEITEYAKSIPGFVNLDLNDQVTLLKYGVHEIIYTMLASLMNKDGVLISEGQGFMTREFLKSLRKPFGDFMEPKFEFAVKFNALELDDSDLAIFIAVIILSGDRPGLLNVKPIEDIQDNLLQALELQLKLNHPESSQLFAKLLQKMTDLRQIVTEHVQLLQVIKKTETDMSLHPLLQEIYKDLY
experimental.details: in vitro agonist activity against peroxisome proliferator activated receptor-gamma (PPAR-gamma), using alkaline phosphatase activity transactivator assay
Format: functional
pEC50: −log10 of the molar value.
measured.property: pEC50

compound	measured.property	measured.number
COc1cccc(C(=O)c2ccccc2NC(Cc2ccc(OCCN(C)c3nc4ccccc4o3)cc2)C(=O)O)c1 (configuration not stated)	pEC50	6.93
Cc1ccccc1C(=O)c1ccccc1NC(Cc1ccc(OCCN(C)c2nc3ccccc3o2)cc1)C(=O)O (configuration not stated)	pEC50	8.03
CN(CCOc1ccc(CC(Nc2ccccc2C(=O)c2ccccc2C(F)(F)F)C(=O)O)cc1)c1nc2ccccc2o1 (configuration not stated)	pEC50	7.40
CN(CCOc1ccc(CC(Nc2ccsc2C(=O)c2ccccc2)C(=O)O)cc1)c1nc2ccccc2o1 (configuration not stated)	pEC50	7.92
CN(CCOc1ccc(CC(Nc2ccccc2C(=O)C2CCCC2)C(=O)O)cc1)c1nc2ccccc2o1 (configuration not stated)	pEC50	7.74

A = COc1ccccc1C(=O)c1ccccc1NC(Cc1ccc(OCCN(C)c2nc3ccccc3o2)cc1)C(=O)O (configuration not stated)
B = Cc1oc(-c2ccccc2)nc1CCOc1ccc(CC(Nc2ccccc2C(=O)c2ccncc2)C(=O)O)cc1 (configuration not stated)
Smaller pEC50 value, A vs B ? Answer format: the label of the selected item.
A

a = Cc1oc(-c2ccccc2)nc1CCOc1ccc(CC(Nc2ccccc2C(=O)c2cccc(C(=O)O)c2)C(=O)O)cc1 (configuration not stated)
b = CNC(=O)c1ccccc1NC(Cc1ccc(OCCc2nc(-c3ccccc3)oc2C)cc1)C(=O)O (configuration not stated)
c = CCCOC(=O)c1ccccc1NC(Cc1ccc(OCCc2nc(-c3ccccc3)oc2C)cc1)C(=O)O (configuration not stated)
d = Cc1oc(-c2ccccc2)nc1CCOc1ccc(C[C@@H](Nc2ccccc2C(=O)C2CCCCC2)C(=O)O)cc1
Which order do these items take when sorted by rising pEC50? List them. Output spec: labels arranged per the requested ranking.
a, b, d, c

1 = Cc1ccc(C(=O)c2ccccc2NC(Cc2ccc(OCCN(C)c3nc4ccccc4o3)cc2)C(=O)O)cc1 (configuration not stated)
2 = CN(CCOc1ccc(CC(Nc2ccccc2C(=O)c2ccsc2)C(=O)O)cc1)c1nc2ccccc2o1 (configuration not stated)
In the pair 1 and 2 , the larger recorded pEC50 belongs to which? Answer format: the label of the selected item.
1

a = Cc1oc(-c2ccccc2)nc1CCOc1ccc(CC(Nc2ccccc2C(=O)OC(C)C)C(=O)O)cc1 (configuration not stated)
b = CCOC(=O)c1ccccc1NC(Cc1ccc(OCCc2nc(-c3ccccc3)oc2C)cc1)C(=O)O (configuration not stated)
c = Cc1oc(-c2ccccc2)nc1CCOc1ccc(CC(Nc2ccccc2C(=O)N(C)C)C(=O)O)cc1 (configuration not stated)
d = CN(CCOc1ccc(CC(Nc2sccc2C(=O)c2ccccc2)C(=O)O)cc1)c1nc2ccccc2o1 (configuration not stated)
Thanks in advance: please rank these 4 entries by pEC50, highest to lowest. Output spec: labels arranged per the requested ranking.
a, b, d, c
(a: 9.24, b: 9.04, d: 7.42, c: 6.25)
